Target Or Test System: JAK1 (Homo sapiens (Human), UniProt P23458)
Sequence (P23458 875-1153): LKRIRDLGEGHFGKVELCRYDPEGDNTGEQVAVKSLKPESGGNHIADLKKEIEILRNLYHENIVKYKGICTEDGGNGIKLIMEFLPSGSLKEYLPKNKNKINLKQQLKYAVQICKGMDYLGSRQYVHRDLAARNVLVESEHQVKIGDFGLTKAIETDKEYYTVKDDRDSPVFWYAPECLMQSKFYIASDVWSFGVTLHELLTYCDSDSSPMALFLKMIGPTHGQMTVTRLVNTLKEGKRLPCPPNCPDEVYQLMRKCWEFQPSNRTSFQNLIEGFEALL
Protocol Summary: JAK Caliper Enzyme Assay at 1 mM ATP, JAK1
Assay type: biochemical
Applied Conditions: JAK Caliper enzyme assay
pIC50: −log10 of the molar value.

Mol Smiles	Lt Gt Eq	pIC50
Cn1cc(-c2cc(-c3cnn(C4(CC#N)CN(S(C)(=O)=O)C4)n3)c3cccnc3c2)ccc1=O	=	5.51
N#CC[C@]1(n2ncc(-c3cc(-c4cc(N)ncn4)cc4ncccc34)n2)C[C@@H](C#N)C1	=	5.20
COc1nc(-c2cc(-c3cnn([C@]4(CC#N)C[C@H](C#N)C4)c3)n3ccnc3c2)ccc1N	=	6.20
CS(=O)(=O)N1CC(CC#N)(n2ncc(-c3cc(-c4ccc(F)cc4O)cc4ncccc34)n2)C1	<	5.00

====

Target Or Test System: JAK3 (Homo sapiens (Human))
Sequence (P52333 822-1111): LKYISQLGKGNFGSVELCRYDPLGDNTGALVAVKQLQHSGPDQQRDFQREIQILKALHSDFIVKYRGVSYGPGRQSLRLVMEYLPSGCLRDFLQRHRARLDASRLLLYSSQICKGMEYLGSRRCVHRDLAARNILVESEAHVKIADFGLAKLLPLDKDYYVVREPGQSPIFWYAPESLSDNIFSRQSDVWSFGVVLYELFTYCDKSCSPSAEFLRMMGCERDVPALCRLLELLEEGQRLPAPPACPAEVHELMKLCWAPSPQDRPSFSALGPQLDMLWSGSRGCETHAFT
Protocol Summary: JAK Caliper Enzyme Assay at 1 mM ATP, JAK3
Type: biochemical
pIC50: −log10 of the molar value.
As shown below, each of these molecules has a reported pIC50 value.

Molecule	pIC50
N#CCC1(n2ccc(-c3nc(-c4ccn(C5COC5)n4)cc4ncccc34)n2)CN(CC(F)(F)F)C1 [Example 57]	< 5.00
CS(=O)(=O)N1CC(CC#N)(n2ccc(-c3nc(-c4cnn([C@@H]5CCOC5)c4)cc4ncccc34)n2)C1 [Example 124]	5.01
Cn1cc(-c2cc(-c3cnn([C@]4(CC#N)C[C@@H](C#N)C4)n3)c3cccnc3c2)nn1 [Example 339]	< 5.00
CS(=O)(=O)N1CC(CC#N)(n2ccc(-c3nc(-c4ccnc(O)c4)cc4ncccc34)n2)C1 [Example 186]	< 5.00
N#CCC1(n2ccc(-c3nc(-c4ccc5nncn5c4)cc4ncccc34)n2)CN(CC(F)(F)F)C1 [Example 167]	< 5.00
CS(=O)(=O)N1CC(CC#N)(n2ccc(-c3nc(-c4cnn(C5COC5)c4)cc4ncccc34)n2)C1 [Example 121]	5.02
N#CC[C@H]1C[C@](CC#N)(n2ccc(-c3nc(-c4cn[nH]c4)cc4ncccc34)n2)C1 [Example 79]	< 5.00

====

Target Or Test System: TYK2 (Homo sapiens (Human), UniProt P29597)
Sequence (P29597 897-1176): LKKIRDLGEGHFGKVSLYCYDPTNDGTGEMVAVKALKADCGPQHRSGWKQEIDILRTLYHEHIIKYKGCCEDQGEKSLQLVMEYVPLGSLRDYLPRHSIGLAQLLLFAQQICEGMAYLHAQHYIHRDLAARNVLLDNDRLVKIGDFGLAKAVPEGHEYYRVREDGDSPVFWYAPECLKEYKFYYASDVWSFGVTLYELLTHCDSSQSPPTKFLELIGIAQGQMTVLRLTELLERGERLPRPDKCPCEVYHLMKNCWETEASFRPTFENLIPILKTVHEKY
Protocol Summary: JAK Caliper Enzyme Assay at 1 mM ATP, TYK2
Format: biochemical
pIC50: −log10 of the molar value.
Measured pIC50, listed per entry.
Quantity Measured: pIC50

Compound	Target Or Test System	Quantity Measured	Result
N#CC[C@]1(n2ncc(-c3cc(-c4cccc(C(N)=O)n4)cc4ncccc34)n2)C[C@H](C#N)C1 [Example 350]	TYK2 (Homo sapiens (Human), UniProt P29597)	pIC50	8.15
Cc1cc(-c2nc(-c3ccn[nH]3)cc3ncccc23)nn1C1(CC#N)CN(S(C)(=O)=O)C1 [Example 267]	TYK2 (Homo sapiens (Human), UniProt P29597)	pIC50	7.24
CS(=O)(=O)N1CC(CC#N)(n2ccc(-c3nc(-c4ccc(O)cc4)cc4ncccc34)n2)C1 [Example 254]	TYK2 (Homo sapiens (Human), UniProt P29597)	pIC50	7.96
CS(=O)(=O)N1CC(CC#N)(n2ccc(-c3cc(-c4cc[nH]n4)cc4ncccc34)n2)C1 [Example 283]	TYK2 (Homo sapiens (Human), UniProt P29597)	pIC50	6.75
N#CC[C@]1(n2ccc(-c3nc(-c4ccc(O)c(C(N)=O)n4)cc4ncccc34)n2)C[C@H](C#N)C1 [Example 227]	TYK2 (Homo sapiens (Human), UniProt P29597)	pIC50	5.93
N#CC[C@]1(n2ccc(-c3nc(-c4cn[nH]c4CO)cc4ncccc34)n2)C[C@@H](C#N)C1 [Example 92]	TYK2 (Homo sapiens (Human), UniProt P29597)	pIC50	8.05
N#CCC1(n2ncc(-c3cc(-c4cc(N)[nH]n4)cc4ncccc34)n2)CC(C#N)C1 (centres unmarked) [Example 306]	TYK2 (Homo sapiens (Human), UniProt P29597)	pIC50	7.85
Cc1cc(-c2nc(-c3cc[nH]n3)cc3ncccc23)nn1[C@]1(CC#N)C[C@H](C#N)C1 [Example 268]	TYK2 (Homo sapiens (Human), UniProt P29597)	pIC50	8.10
N#CC[C@]1(n2ncc(-c3cc(-c4cn[nH]c4)cc4ncccc34)n2)C[C@H](C#N)C1 [Example 315]	TYK2 (Homo sapiens (Human), UniProt P29597)	pIC50	7.72
N#CC[C@]1(n2ncc(-c3cc(-c4cc(CO)ns4)cc4ncccc34)n2)C[C@H](C#N)C1 [Example 345]	TYK2 (Homo sapiens (Human), UniProt P29597)	pIC50	6.60
Cn1nccc1-c1cc2ncccc2c(-c2ccn(C3(CC#N)CN(CC(F)(F)F)C3)n2)n1 [Example 54]	TYK2 (Homo sapiens (Human), UniProt P29597)	pIC50	6.67

====

Target Or Test System: JAK2 (Homo sapiens (Human), UniProt O60674)
Sequence (O60674 849-1124): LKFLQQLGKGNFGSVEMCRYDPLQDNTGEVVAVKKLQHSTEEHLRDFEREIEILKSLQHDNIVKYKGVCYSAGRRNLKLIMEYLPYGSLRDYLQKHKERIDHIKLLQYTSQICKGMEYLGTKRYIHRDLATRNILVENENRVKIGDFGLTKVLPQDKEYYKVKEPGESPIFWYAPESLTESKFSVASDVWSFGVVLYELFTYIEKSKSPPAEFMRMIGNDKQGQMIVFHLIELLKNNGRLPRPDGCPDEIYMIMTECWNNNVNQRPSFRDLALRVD
Protocol Summary: JAK Caliper Enzyme Assay at 1 mM ATP, JAK2
Assay type: biochemical
Criterion: IC50 strictly less than 700 nM. Met: MET. Not met: NOT MET.

Molecule	Discrete Label
CS(=O)(=O)c1ccc(-c2cc(-c3cnn([C@]4(CC#N)C[C@@H](C#N)C4)n3)c3cccnc3c2)nc1 [Example 369]	MET
C[C@]1(C#N)C[C@](CC#N)(n2ccc(-c3nc(-c4cc[nH]n4)cc4ncccc34)n2)C1 [Example 36]	NOT MET
CO[C@H]1C[C@@](CC#N)(n2ccc(-c3nc(-c4ccc(=O)[nH]c4)cc4ncccc34)n2)C1 [Example 247]	NOT MET
N#CC[C@]1(n2ncc(-c3cc(-c4cc(CO)ns4)cc4ncccc34)n2)C[C@H](C#N)C1 [Example 345]	NOT MET
Cn1cc(-c2cc(-c3cnn(C4(CC#N)CC(C#N)C4)n3)c3cccnc3c2)c(CO)n1 (stereo not drawn) [Example 329]	MET
CS(=O)(=O)N1CC(CC#N)(n2ccc(-c3nc(-c4ccc(O)c(F)c4)cc4ncccc34)n2)C1 [Example 260]	MET
N#CC[C@H]1C[C@](CC#N)(n2ccc(-c3nc(-c4ccn[nH]4)cc4ncccc34)n2)C1 [Example 22]	NOT MET
C[C@]1(C#N)C[C@](CC#N)(n2ccc(-c3nc(-c4ccnc(N)c4)cc4ncccc34)n2)C1 [Example 200]	NOT MET
N#CC[C@]1(n2ccc(-c3nc(-c4cnn(CCO)c4)cc4ncccc34)n2)C[C@H](C#N)C1 [Example 126]	MET
Cc1cc(-c2nc(-c3cn[nH]c3N)cc3ncccc23)nn1[C@]1(CC#N)C[C@@H](C#N)C1 [Example 275]	MET
CS(=O)(=O)N1CC(CC#N)(n2ccc(-c3nc(-c4ccc(N)nc4)cc4ncccc34)n2)C1 [Example 194]	MET
Cn1cc(-c2cc3ncccc3c(-c3cnn(C4(CC#N)CN(CC(F)(F)F)C4)c3)n2)cn1 [Example 4]	MET
N#CCC1(n2ccc(-c3nc(-c4cncnc4)cc4ncccc34)n2)CN(CC(F)(F)F)C1 [Example 234]	NOT MET
Cn1ccc(-c2cc3ncccc3c(-c3ccn(C4(CC#N)CN(CC(F)(F)F)C4)n3)n2)n1 [Example 55]	NOT MET
CC(C)(O)[C@H]1C[C@@](CC#N)(n2ccc(-c3nc(-c4cn[nH]c4)cc4ncccc34)n2)C1 [Example 82]	NOT MET
N#CC[C@]1(n2ccc(-c3nc(-c4ccnc(C(N)=O)n4)cc4ncccc34)n2)C[C@H](C#N)C1 [Example 243]	NOT MET
N#CC[C@]1(n2ccc(-c3nc(-c4c[nH]nc4N)cc4ncccc34)n2)C[C@H](C#N)C1 [Example 98]	MET
CCN1CC(CC#N)(n2ccc(-c3nc(-c4c[nH]nc4N)cc4ncccc34)n2)C1 [Example 94]	NOT MET
CO[C@H]1C[C@@](CC#N)(n2ccc(-c3nc(-c4cn[nH]c4)cc4ncccc34)n2)C1 [Example 80]	NOT MET
COc1ncc(-c2cc3ncccc3c(-c3ccn(C4(CC#N)CN(S(C)(=O)=O)C4)n3)n2)cn1 [Example 237]	NOT MET
CCN1CC(CC#N)(n2ccc(-c3nc(-c4cc(CO)[nH]n4)cc4ncccc34)n2)C1 [Example 47]	NOT MET
Cc1cc(-c2cc3ncccc3c(-c3ccn([C@]4(CC#N)C[C@H](C#N)C4)n3)n2)n[nH]1 [Example 44]	MET
CCn1cc(-c2cc3ncccc3c(-c3ccn(C4(CC#N)CN(CC(F)(F)F)C4)n3)n2)cn1 [Example 111]	MET
CS(=O)(=O)N1CC(CC#N)(n2ncc(-c3cc(-c4cccnc4N)cc4ncccc34)n2)C1 [Example 361]	NOT MET
Cn1ncc(-c2cc3ncccc3c(-c3ccn([C@]4(CC#N)C[C@@H](C#N)C4)n3)n2)c1CO [Example 136]	MET
N#CCC1(n2ccc(-c3nc(-c4ccnc(C(N)=O)c4)cc4ncccc34)n2)CN(CC(F)(F)F)C1 [Example 215]	NOT MET
N#CC[C@]1(n2ncc(-c3cc(-c4cnn(CCO)c4)cc4ncccc34)n2)C[C@@H](C#N)C1 [Example 327]	MET
CO[C@H]1C[C@@](CC#N)(n2cc(-c3nc(-c4cc(CO)n[nH]4)cc4ncccc34)cn2)C1 [Example 12]	MET
Cn1ncc(-c2cc3ncccc3c(-c3ccn(C4(CC#N)CN(CC(F)(F)F)C4)n3)n2)n1 [Example 154]	NOT MET
N#CC[C@]1(n2ncc(-c3cc(-c4ccc(N)cn4)cc4ncccc34)n2)C[C@@H](C#N)C1 [Example 359]	MET
